test-protocol: The drug is tested on WLS-090 corresponding to human gut metagenome with ENA study accession number: PRJEB37062 and ENA sample accession number: ERS12561753 for biotransformation under anaerobic condition. The drug concentrations were measured over 9 timepoints collected between 0 and 24 hours of incubation by liquid-chromatography-coupled mass spectrometry (LC–MS); also: call rule not given here
condition-summary: 2 µM
endpoint-name: Bacterial Biotransformation

compound=N=C(N)NC(=O)Cc1c(Cl)cccc1Cl endpoint_name="Bacterial Biotransformation" reported_value="Compound NOT metabolized"
compound="CCCN1C[C@H](CSC)C[C@@H]2c3cccc4[nH]cc(c34)C[C@H]21.CS(=O)(=O)O [PERGOLIDE MESYLATE]" endpoint_name="Bacterial Biotransformation" reported_value="Compound NOT metabolized"
compound=C[C@]12CCC(=O)C=C1[C@@H]1C[C@@H]1[C@H]1[C@@H]3[C@@H]4C[C@@H]4[C@@]4(CCC(=O)O4)[C@@]3(C)CC[C@@H]12 endpoint_name="Bacterial Biotransformation" reported_value="Compound NOT metabolized"
compound=CC[C@H](C)C(=O)O[C@H]1CCC=C2C=C[C@H](C)[C@H](CC[C@@H]3C[C@@H](O)CC(=O)O3)[C@H]21 endpoint_name="Bacterial Biotransformation" reported_value="Compound metabolized"
compound="CC(=O)Nc1ccc(OC(C)=O)cc1 [DIACETAMATE]" endpoint_name="Bacterial Biotransformation" reported_value="Compound metabolized"
compound=c1ccc2[nH]c(-c3cscn3)nc2c1 endpoint_name="Bacterial Biotransformation" reported_value="Compound metabolized"
compound=CN(C)CCc1c[nH]c2ccc(CS(=O)(=O)N3CCCC3)cc12 endpoint_name="Bacterial Biotransformation" reported_value="Compound metabolized"
compound="CSc1ccc2c(c1)C(N1CCN(C)CC1)Cc1ccccc1S2.O=C(O)/C=C\\C(=O)O (stereo not drawn)" endpoint_name="Bacterial Biotransformation" reported_value="Compound metabolized"

---

condition-summary: human gut metagenome, 24 h, 2 µM
endpoint-name: Bacterial Biotransformation

compound="CC(C)(C)NCC(O)COc1cccc2c1CC(O)C(O)C2 (stereo not drawn)" reported_value="Compound NOT metabolized"
compound="CCN(CC)CCNC(=O)c1ccc(NC(C)=O)cc1 [ACECAINIDE]" reported_value="Compound NOT metabolized"
compound="CN(C)CCOC(C)(c1ccccc1)c1ccccn1.O=C(O)CCC(=O)O (stereo not drawn) [DOXYLAMINE SUCCINATE]" reported_value="Compound NOT metabolized"
compound="COC(=O)[C@H](c1ccccc1Cl)N1CCc2sccc2C1.O=S(=O)(O)O [CLOPIDOGREL BISULFATE]" reported_value="Compound metabolized"
compound=N#Cc1ccc2c(c1)N(CCCN1CCC(O)CC1)c1ccccc1S2 reported_value="Compound NOT metabolized"
compound="CCOc1cc(CC(=O)N[C@@H](CC(C)C)c2ccccc2N2CCCCC2)ccc1C(=O)O [REPAGLINIDE]" reported_value="Compound NOT metabolized"
compound="CC(C)[C@H]1CC[C@H](C(=O)N[C@H](Cc2ccccc2)C(=O)O)CC1 [NATEGLINIDE]" reported_value="Compound metabolized"
compound="Br.CN1CCC[C@@H]1Cc1c[nH]c2ccc(CCS(=O)(=O)c3ccccc3)cc12 [ELETRIPTAN HYDROBROMIDE]" reported_value="Compound NOT metabolized"
compound="C#C[C@]1(OC(C)=O)CC[C@H]2[C@@H]3CCC4=CC(=O)CC[C@@H]4[C@H]3CC[C@@]21C [NORETHINDRONE ACETATE]" reported_value="Compound metabolized"
compound="O=C1C(CC[S+]([O-])c2ccccc2)C(=O)N(c2ccccc2)N1c1ccccc1 (stereo not drawn)" reported_value="Compound metabolized"
compound=N=C(N)NC(=O)Cc1c(Cl)cccc1Cl reported_value="Compound NOT metabolized"
compound="CC12CC3CC(C)(C1)CC(N)(C3)C2 [MEMANTINE]" reported_value="Compound NOT metabolized"
compound="CN(C)CCC=C1c2ccccc2COc2ccccc21 [DOXEPIN]" reported_value="Compound NOT metabolized"
compound="COc1ccc(C(CN(C)C)C2(O)CCCCC2)cc1 (stereo not drawn)" reported_value="Compound NOT metabolized"
compound="CC(CCc1ccccc1)NCC(O)c1ccc(O)c(C(N)=O)c1 (stereo not drawn)" reported_value="Compound NOT metabolized"
compound="O=C(O)CCC(=O)O.O=C(O[C@H]1CN2CCC1CC2)N1CCc2ccccc2[C@@H]1c1ccccc1 [SOLIFENACIN SUCCINATE]" reported_value="Compound NOT metabolized"
compound="CC(=O)OCC(=O)NCCCOc1cccc(CN2CCCCC2)c1 [ROXATIDINE ACETATE]" reported_value="Compound NOT metabolized"
compound=CCN(C(C)=O)c1cccc(-c2ccnc3c(C#N)cnn23)c1 reported_value="Compound metabolized"
